- TARGET_OR_SYSTEM: 5HT2A (Homo sapiens)
- Construct: expressed in transfected cells
- Sequence (P28223 whole entry): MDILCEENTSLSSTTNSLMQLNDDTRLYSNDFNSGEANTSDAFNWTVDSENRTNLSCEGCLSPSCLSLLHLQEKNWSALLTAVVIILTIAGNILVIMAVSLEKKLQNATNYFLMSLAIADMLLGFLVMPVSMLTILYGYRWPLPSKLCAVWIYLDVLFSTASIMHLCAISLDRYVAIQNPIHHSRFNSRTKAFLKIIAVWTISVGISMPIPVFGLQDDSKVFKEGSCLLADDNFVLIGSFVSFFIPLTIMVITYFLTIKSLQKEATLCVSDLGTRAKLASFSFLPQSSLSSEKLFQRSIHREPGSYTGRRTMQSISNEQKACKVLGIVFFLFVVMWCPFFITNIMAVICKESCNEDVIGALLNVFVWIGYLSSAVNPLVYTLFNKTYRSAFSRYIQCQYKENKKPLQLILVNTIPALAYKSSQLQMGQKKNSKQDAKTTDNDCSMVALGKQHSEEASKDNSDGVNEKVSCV
- TEST_DESCRIPTION: Cell assay using human cells, 5HT2A
- Format: binding
- EXPERIMENTAL_SETUP: Table I, hydrochloride
Where a name gives a salt, the structure may show the parent alone.
Listed here are compounds together with their documented pKi.
Give only the number. pKi is defined as minus log10 of concentration in molar units.

# annotated cases, reported pKi shown
compound="COc1cc2c(cc1OC)CC1(CC2)N[C@H]2CCCC[C@@H]2c2c1[nH]c1ccc(C)cc21 (relative stereo) [Example 18, hydrochloride]" target_or_system="5HT2A (Homo sapiens)" value_reported=6.44
compound="COc1cc2c(cc1OC)CC1(CC2)N[C@H]2CCCC[C@@H]2c2c1[nH]c1ccc(C)cc21 (single isomer, unassigned; isomer 18) [Isomer 18(1), hydrochloride]" target_or_system="5HT2A (Homo sapiens)" value_reported=6.82

Ask: Return reported pKi. Input compound: COc1cc2c(cc1OC)CC1(CC2)N[C@H]2CCCC[C@@H]2c2c1[nH]c1ccc(C)cc21 (single isomer, unassigned; isomer 18) [Isomer 18(2), hydrochloride]
Result: 5.71

----------
- TARGET_OR_SYSTEM: 5HT2B (Homo sapiens)
- Construct: expressed in transfected cells
- Sequence (P41595 whole entry): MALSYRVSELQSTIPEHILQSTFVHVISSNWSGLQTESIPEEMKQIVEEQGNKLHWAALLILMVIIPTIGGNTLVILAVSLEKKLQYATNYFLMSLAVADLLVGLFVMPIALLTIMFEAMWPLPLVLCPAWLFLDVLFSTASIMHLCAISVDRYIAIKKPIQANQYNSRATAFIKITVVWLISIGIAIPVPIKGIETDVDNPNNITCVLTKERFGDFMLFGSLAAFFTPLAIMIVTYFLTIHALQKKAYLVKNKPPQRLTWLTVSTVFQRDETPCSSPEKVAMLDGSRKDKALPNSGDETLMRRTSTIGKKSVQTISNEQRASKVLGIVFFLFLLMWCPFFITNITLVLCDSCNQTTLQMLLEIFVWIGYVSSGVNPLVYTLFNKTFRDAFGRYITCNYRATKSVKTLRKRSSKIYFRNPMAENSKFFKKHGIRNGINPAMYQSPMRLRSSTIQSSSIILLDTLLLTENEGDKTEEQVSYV
- TEST_DESCRIPTION: Cell assay using human cells, 5HT2B (radioligand binding)
- EXPERIMENTAL_SETUP: Table I
Structures can show the parent of a compound that is named as a salt.
ASSAY_READOUT: pKi
Give only the number. pKi is defined as minus log10 of concentration in molar units.

# annotated cases, reported pKi shown
compound="COc1ccc(CC2N[C@@H]3CCC[C@H]3c3c2[nH]c2c(C)cc(C)cc32)cc1OC (relative stereo) [Example 10, hydrochloride]" value_reported=6.97
compound="COc1ccc(CC2N[C@@H]3CCC[C@H]3c3c2[nH]c2c(Cl)cccc32)cc1OC (relative stereo) [Example 9, hydrochloride]" value_reported=7.28

Let us examine a further case.
Ask: Return reported pKi. Input compound: Cc1cc(C)c2[nH]c3c(c2c1)[C@@H]1CCCC[C@H]1NC3Cc1cccc2ccccc12 (relative stereo) [Example 17, hydrochloride]
Result: 6.43

----------
- TARGET_OR_SYSTEM: 5HT2C (Homo sapiens)
- Construct: expressed in transfected cells
- Sequence (P28335 33-458): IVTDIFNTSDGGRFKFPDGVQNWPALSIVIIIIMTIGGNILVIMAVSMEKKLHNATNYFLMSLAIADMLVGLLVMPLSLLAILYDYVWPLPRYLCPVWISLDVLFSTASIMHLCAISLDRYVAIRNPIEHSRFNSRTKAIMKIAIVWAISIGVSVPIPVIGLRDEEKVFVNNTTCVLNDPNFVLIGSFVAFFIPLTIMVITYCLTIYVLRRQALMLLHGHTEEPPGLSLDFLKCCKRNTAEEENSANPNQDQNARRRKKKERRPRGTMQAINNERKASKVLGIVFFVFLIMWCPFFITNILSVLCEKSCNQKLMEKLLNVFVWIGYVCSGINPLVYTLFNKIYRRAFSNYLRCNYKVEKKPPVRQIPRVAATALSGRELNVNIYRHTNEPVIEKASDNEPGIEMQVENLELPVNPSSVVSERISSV
- TEST_DESCRIPTION: Cell assay using human cells, 5HT2C
- Format: binding
- EXPERIMENTAL_SETUP: Table I
Where a name gives a salt, the structure may show the parent alone.
Listed here are molecules together with their documented Ki.
Express your answer in nM, writing the number without its unit.

# annotated cases, reported Ki shown
molecule="COc1ccc(CC2N[C@@H]3CCC[C@H]3c3c2[nH]c2c(Cl)cccc32)cc1OC (relative stereo) [Example 9, hydrochloride]" assay_readout=Ki value_reported=203
molecule="Clc1cccc2c3c([nH]c12)CN[C@@H]1CCCC[C@@H]31 (relative stereo) [Example 7, hydrochloride]" assay_readout=Ki value_reported=977
molecule="COc1ccc(CC2N[C@@H]3CCCC[C@H]3c3c2[nH]c2c(C)cc(C)cc32)cc1OC (relative stereo) [Example 13, hydrochloride]" assay_readout=Ki value_reported=2170

Ask: Return reported Ki. Input molecule: COc1ccc(CC2N[C@@H]3CCCCC[C@H]3c3c2[nH]c2ccc(C)cc32)cc1OC (relative stereo) [Example 14, hydrochloride]
Result: 9250

Ask: Return reported Ki. Input molecule: COc1ccc(CC2N[C@@H]3CCC[C@H]3c3c2[nH]c2c(C)cc(C)cc32)cc1OC (relative stereo) [Example 10, hydrochloride]
Result: 1120

Ask: Return reported Ki. Input molecule: COc1ccc(CC2N[C@@H]3CCCC[C@H]3c3c2[nH]c2ccc(C)cc32)cc1OC (relative stereo) [Example 11, hydrochloride]
Result: 352

Ask: Return reported Ki. Input molecule: COc1ccc(CC2N[C@@H]3CCCC[C@H]3c3c2[nH]c2c(Cl)cccc32)cc1OC (relative stereo) [Example 12, hydrochloride]
Result: 783

Ask: Return reported Ki. Input molecule: COc1ccc(CC2N[C@@H]3CCC[C@H]3c3c2[nH]c2ccc(C)cc32)cc1OC (relative stereo) [Example 8, hydrochloride]
Result: 221

Ask: Return reported Ki. Input molecule: Cc1cc(C)c2[nH]c3c(c2c1)[C@@H]1CCCC[C@H]1NC3Cc1cccc2ccccc12 (relative stereo) [Example 17, hydrochloride]
Result: 1110

Ask: Return reported Ki. Input molecule: Cc1ccc2[nH]c3c(c2c1)[C@@H]1CCC[C@H]1NC3Cc1cccc2ccccc12 (relative stereo) [Example 15, hydrochloride]
Result: 52.1
